target_desc: MASP-2 CCP2-SP (Homo sapiens (Human), UniProt O00187)
Sequence (O00187 445-686): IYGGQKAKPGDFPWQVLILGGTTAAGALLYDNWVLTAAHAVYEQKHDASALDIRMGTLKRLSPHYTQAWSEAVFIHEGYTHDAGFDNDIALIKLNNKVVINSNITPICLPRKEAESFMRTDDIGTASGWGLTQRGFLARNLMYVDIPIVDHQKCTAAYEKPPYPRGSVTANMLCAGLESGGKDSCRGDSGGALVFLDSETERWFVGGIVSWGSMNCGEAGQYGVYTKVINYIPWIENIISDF
Sequence (O00187 364-432 partner): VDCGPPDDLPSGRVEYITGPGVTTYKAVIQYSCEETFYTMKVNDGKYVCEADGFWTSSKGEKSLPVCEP
assay_text: MASP-2 co-crystallization, X-ray crystallography and structure analysis (H-bonds, van der Waals contacts)
experimental_context: Table A7-1; between pharmacophore elements of the bound compound
Structures can show the parent of a compound that is named as a salt.
quantity_kind: Pharmacophore torsion angle a(H4, O1, O2, H3)

molecule	measured
C[C@H](NC(=O)[C@H]1C[C@@H](c2ccccc2)CCN1)C(=O)NCc1cc(Cl)ccc1O.Cl [1078_4]	−123.98
Cc1nc(N)ccc1CNC(=O)C(C)NC(=O)C1CC(c2cccc3ccccc23)CCN1.Cl.Cl (stereo not shown) [1297_6]	43.22
Cc1nc(N)ccc1CNC(=O)[C@H](C)NC(=O)[C@H]1C[C@@H](c2ccccc2)CCN1C	50.54
C[C@H](NC(=O)[C@H](N)CCCc1ccccc1)C(=O)NCc1ccc(C(=N)N)cc1.Cl.Cl [1042_2]	−9.33
Cc1nc(N)ccc1CNC(=O)[C@H](C)NC(=O)[C@H]1C[C@H](Cc2cc(Cl)cc(Cl)c2)CN1 [compound 1435, Dihydrochloride]	51.39
CC(NC(=O)C1CC(Cc2ccccc2)CN1)C(=O)NCc1cnc2c(c1)c(Cl)cn2C.Cl.Cl (stereo not shown)	−176.95
CNC(=O)c1ccc2c(=O)n(Cc3ccccc3)c(=O)n(CC(=O)NCc3ccc(C(=N)N)cc3)c2c1	30.27
